Cited source for all entries: PubChem BioAssay (NCI)

test: NCI Yeast Anticancer Drug Screen. Data for the cln2 rad14 strain (AID 165);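 also: 0% = growth equal to vehicle treated cultures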; details: S. cerevisiae cln2 rad14 strain, at 50.0 µM (retest, dose inferred, filed as 5.0), stronger effect = higher value
This is part of a sample that, as a whole, favours compounds with a hit. Of some 79,000 tested, about 15% had one in any assay.
// Not fulfilled strictly below 20% in growth inhibition; Fulfilled otherwise

Consider the following illustrative entries.
O=C(NNC(=O)OCC(Cl)(Cl)Cl)OCC(Cl)(Cl)Cl :: Not fulfilled
CCCCCCCCCC[Se]C#N :: Fulfilled
CCOC(=O)C(NC(=O)C(Cc1ccc(N(CCCl)CCCl)cc1)NC(C)=O)C(C)C (stereo not given) :: Not fulfilled
CO[C@H](/C(C)=C/C=C/C(C)=C/c1coc(C)n1)[C@H](C)[C@H]1C[C@@H](O)[C@@]2(C)O[C@H]2/C=C/[C@@H](C)[C@@H]2C[C@@H](CC(=O)O2)C[C@H]2O[C@@H]2C(=O)O1 :: Fulfilled
C[C@]12CCc3nonc3C1CC[C@@H]1C2CC[C@]2(C)C(=O)CCC12 (stereo not given in full) :: Fulfilled
Cc1ccc(P(c2ccc(C)cc2)c2ccc(C)cc2)cc1 :: Fulfilled
Fc1cccc(C2N(Cc3ccc(N(CCCl)CCCl)cc3Cl)CCCN2Cc2ccc(N(CCCl)CCCl)cc2Cl)c1 :: Fulfilled
OCC(O)C(O)CO (stereo not given) (tested in a mixture with another compound) :: Not fulfilled
CN(C)CCSC1=Nc2ccc(Cl)cc2C(c2ccccc2Cl)=NC1 :: Not fulfilled
O=C(c1ccc(Br)cc1)C1C(c2ccccc2)N1C1CCCCC1 (stereo not given) :: Fulfilled

State whether the measured growth inhibition reaches 20%, counting equality as reaching it, for `C=CO/C(C)=C(\[Se]c1ccccc1)C(C)=O`
Fulfilled

State whether the measured growth inhibition reaches 20%, counting equality as reaching it, for `COC(=O)C(C)(C)[n+]1c(C)cc(C)cc1C`
Not fulfilled

State whether the measured growth inhibition reaches 20%, counting equality as reaching it, for `O=c1oc2ccccc2c(O)c1C(c1ccc(/C=C/c2ccccc2)cc1)c1c(O)c2ccccc2oc1=O`
Fulfilled

State whether the measured growth inhibition reaches 20%, counting equality as reaching it, for C[N+](C)(C)CC1CCCC(C[N+](C)(C)C)C1=O (stereo not given)
Fulfilled

---

test: NCI Yeast Anticancer Drug Screen. Data for the cln2 rad14 strain (AID 165);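 also: 0% = growth equal to vehicle treated cultures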; settings: S. cerevisiae cln2 rad14 strain, at 5.0 µM (retest, dose inferred, filed as 0.5), stronger effect = higher value
Compounds without any hit were thinned out: in the full panel of roughly 79,000, 15% have a hit.
Reported values of growth inhibition for individual entries
Field: numeric (%). Do not append units.

Solved cases (5 shown):
Clc1c(Cl)c(Cl)c([S][Pb]([c]2ccccc2)([c]2ccccc2)[c]2ccccc2)c(Cl)c1Cl :: 84
CCN1CCC(O)(c2ccc(Cl)c(Cl)c2)C(C(=O)c2ccc(Cl)c(Cl)c2)C1 (centres undefined) :: 60
Nc1cc(Cl)ccc1C(=O)c1ccccc1Cl :: -6
CCC[CH2][Sn]1([CH2]CCC)[S]CC[N]1S(=O)(=O)c1ccc(C)cc1 :: 62
ClCCN(CCCl)CCN1c2ccccc2Sc2ccc3ccccc3c21 :: -7

Could you share which growth inhibition value was measured for Oc1cccc2cccnc12 (tested in a mixture with another compound) ?
-6

Could you share which growth inhibition value was measured for CCCCCCCCCCCCCCCCP(=O)(O)OCC(N)C(=O)O (centres undefined) ?
23

Could you share which growth inhibition value was measured for `N#CN(Cc1ccccc1)C(c1ccccc1)(c1ccccc1)c1ccccc1.[Cl][Sn]([c]1ccccc1)([c]1ccccc1)[c]1ccccc1` ?
99

Could you share which growth inhibition value was measured for COc1cc(C2c3cc4c(cc3[C@@H](Nc3ccc(N)cc3)C3COC(=O)[C@H]23)OCO4)cc(OC)c1O (some centres undefined) ?
20
